# Assayed System: Vhr1 (UniProt P40522)
# Sequence: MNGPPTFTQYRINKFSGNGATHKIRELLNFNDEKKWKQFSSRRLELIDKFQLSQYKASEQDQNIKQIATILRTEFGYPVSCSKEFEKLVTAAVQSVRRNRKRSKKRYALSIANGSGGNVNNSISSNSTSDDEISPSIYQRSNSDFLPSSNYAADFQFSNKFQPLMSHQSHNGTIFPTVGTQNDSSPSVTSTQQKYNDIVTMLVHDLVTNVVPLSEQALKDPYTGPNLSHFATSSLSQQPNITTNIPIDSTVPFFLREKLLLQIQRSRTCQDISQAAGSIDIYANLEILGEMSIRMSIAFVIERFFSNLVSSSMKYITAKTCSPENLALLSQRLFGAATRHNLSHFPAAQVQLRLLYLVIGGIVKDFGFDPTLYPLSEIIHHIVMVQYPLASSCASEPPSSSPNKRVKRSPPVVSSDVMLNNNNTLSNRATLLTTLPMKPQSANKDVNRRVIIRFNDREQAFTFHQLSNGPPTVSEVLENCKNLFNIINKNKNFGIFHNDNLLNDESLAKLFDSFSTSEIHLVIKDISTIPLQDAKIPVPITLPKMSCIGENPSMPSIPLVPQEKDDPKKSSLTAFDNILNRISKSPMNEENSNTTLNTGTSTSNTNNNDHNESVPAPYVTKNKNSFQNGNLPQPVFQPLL
# Experimental Details: PBM E-score (8-mer binding enrichment) (E-score (-0.5 to 0.5)); higher = stronger / more preferred TF binding
# Recorded Conditions: protein concentration: 200 nM; construct: GST-full length
In all, about 33,000 sequences were measured (“E-score (-0.5 to 0.5)”: median about -0.012, highest 2% from about 0.27 on). The list comes from a sample in which the highest values are over-represented; it also holds close analogues and randomly drawn sequences.
Observation Type: PBM E-score
Just the number, please, no unit after it.

// worked examples, PBM E-score included
>>> recorded_value("CACTCAGC")
0.044
>>> recorded_value("CACTCAGA")
0.12
>>> recorded_value("CGTCCTAG")
-0.181
>>> recorded_value("CGGCCAAC")
0.0556
>>> recorded_value("ACGTGACG")
-0.137
>>> recorded_value("ACTCACGG")
0.352
>>> recorded_value("ACTCACGA")
0.243
>>> recorded_value("ACACACGG")
0.155
>>> recorded_value("ACTCACGC")
0.366
>>> recorded_value("CACAACGC")
0.134

Enquiry: Reported PBM E-score for `AATCACGC` : what is it?
Return: 0.354

Enquiry: Reported PBM E-score for `ACGTCCAG` : what is it?
Return: -0.147

Enquiry: Reported PBM E-score for `TCCGACAA` : what is it?
Return: -0.0624

Enquiry: Reported PBM E-score for `ACTCCAGA` : what is it?
Return: 0.0505

Enquiry: Reported PBM E-score for `ACGTGACA` : what is it?
Return: -0.197

Enquiry: Reported PBM E-score for `AGCCCTAC` : what is it?
Return: -0.108
